# Assay System: T1, recombinant LILRB1 ECD (human, UniProt Q8NHL6 24-461)
# T1 construct: also called biotinylated LILRB1 ECD
# T1 sequence (Q8NHL6 24-461 limits assumed): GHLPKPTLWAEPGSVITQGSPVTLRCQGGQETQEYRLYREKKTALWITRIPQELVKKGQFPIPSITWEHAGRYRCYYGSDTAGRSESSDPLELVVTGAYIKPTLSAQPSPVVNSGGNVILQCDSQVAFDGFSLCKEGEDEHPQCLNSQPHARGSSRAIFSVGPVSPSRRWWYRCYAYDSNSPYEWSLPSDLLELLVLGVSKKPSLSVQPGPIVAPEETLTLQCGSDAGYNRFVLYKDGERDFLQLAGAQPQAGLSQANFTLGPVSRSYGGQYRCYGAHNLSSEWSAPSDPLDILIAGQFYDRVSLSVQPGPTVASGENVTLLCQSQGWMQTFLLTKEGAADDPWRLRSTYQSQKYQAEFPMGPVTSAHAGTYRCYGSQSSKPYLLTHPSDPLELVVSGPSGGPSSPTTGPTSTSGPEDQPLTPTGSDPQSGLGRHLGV
# Procedure Summary: BLI, IgG on AHC sensor, ECD in solution
# Procedure: Briefly, IgGs were captured on anti-human capture (AHC) biosensors (Sartorius). […] Subsequently, the sensors were dipped into 1× Kinetics Buffer to measure the dissociation over 420 s. All sensorgrams were double referenced against 1× Kinetics Buffer and unloaded […] sensors to subtract sensor drifts and potential reference binding of the analytes. The affinities were determined by applying a 1:1 binding model.
Measured Endpoint: Kd (nM)
Just the number in nM, nothing appended.

>>> measured_number("A-023 (antibody, V domains shown, tested as IgG) VH: QVQLVQSGAEVKKPGSSVKVSCKASGYTFQQYAMSWVRQAPGQGLEWIGGIIPQFSTSVYAQKFQGRVTITADESTSTAYMELSSLRSEDTAVYYCAKGPPVGSSSWYTDWYFDLWGRGTLVTVSS VL: SYELTQPPSVSVSPGQTASITCSGDKLGDKYASWYQQKPGQSPVLVIYQDSKRPSGIPERFSGSNSGNTATLTISGTQAEDEADYYCLSYGAHSHGVVFGGGTKLTVL")
3.1

Okay, now this binder:
Need Kd of A-016 (antibody, V domains shown, tested as IgG) VH: QVQLVQSGAEVKKPGSSVKVSCKASGGTFSSYAFNWVRQAPGQGLEWMGSIIPIFKTANYAQKFQGRVTITADESTSTAYMELSSLRSEDTAVYYCAKDLGTYSSGWPYYYGMDVWGQGTTVTVSS VL: SYELTQPPSVSVSPGQTASITCSGDKLGDKYASWYQQKPGQSPVLVIYQDSKRPSGIPERFSGSNSGNTATLTISGTQAEDEADYYCQSTTHTSFVFGGGTKLTVL , thanks. 6.5
